Origin of the recorded values: paper PMC10247784

# target-system: mouse Tas2r144 (Mus musculus)
# Construct: expressed in transfected cells; host or cells: HEK293T-Gα16gust44
# Sequence (Q7TQB8 whole entry): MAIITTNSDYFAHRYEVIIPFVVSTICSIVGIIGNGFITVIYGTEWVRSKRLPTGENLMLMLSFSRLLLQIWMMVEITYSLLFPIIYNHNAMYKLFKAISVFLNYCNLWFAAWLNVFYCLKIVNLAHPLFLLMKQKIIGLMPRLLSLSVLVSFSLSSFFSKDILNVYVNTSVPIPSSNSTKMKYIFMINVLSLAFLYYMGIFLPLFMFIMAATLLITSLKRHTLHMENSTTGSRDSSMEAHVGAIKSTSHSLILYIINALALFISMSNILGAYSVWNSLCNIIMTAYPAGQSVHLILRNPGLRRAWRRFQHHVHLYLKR
# assay-explanation: Calcium imaging assay (FLIPR), HEK293T-Gα16gust44 cells transfected with mouse Tas2r144
# Assay type: cell-based
# conditions-used: Time 48.781 s
readout-name: RLU
Show the value, then the unit it is measured in.

Below, each entry is followed by its recorded RLU result.
- chemical-structure: "C[C@H](CCC(=O)O)[C@H]1CC[C@H]2[C@@H]3[C@H](O)C[C@@H]4C[C@H](O)CC[C@]4(C)[C@H]3C[C@H](O)[C@]12C"
  experimental-result: "638.534 RLU"
- chemical-structure: "C[C@H](CCC(=O)NCC(=O)O)[C@H]1CC[C@H]2[C@@H]3[C@H](O)C[C@@H]4C[C@H](O)CC[C@]4(C)[C@H]3C[C@H](O)[C@]12C"
  experimental-result: "395.668 RLU"

# map each compound to its RLU
1. C[C@H](CCC(=O)NCCS(=O)(=O)O)[C@H]1CC[C@H]2[C@@H]3CC[C@@H]4C[C@H](O)CC[C@]4(C)[C@H]3CC[C@]12C
2. C[C@H](CCC(=O)NCCS(=O)(=O)O)[C@H]1CC[C@H]2[C@@H]3[C@H](O)C[C@@H]4C[C@H](O)CC[C@]4(C)[C@H]3C[C@H](O)[C@]12C

1. 341.375 RLU
2. 488.439 RLU
